# tgt: PAD2 (peptidylarginine deiminase 2) (Homo sapiens)
# Sequence (Q9Y2J8 whole entry): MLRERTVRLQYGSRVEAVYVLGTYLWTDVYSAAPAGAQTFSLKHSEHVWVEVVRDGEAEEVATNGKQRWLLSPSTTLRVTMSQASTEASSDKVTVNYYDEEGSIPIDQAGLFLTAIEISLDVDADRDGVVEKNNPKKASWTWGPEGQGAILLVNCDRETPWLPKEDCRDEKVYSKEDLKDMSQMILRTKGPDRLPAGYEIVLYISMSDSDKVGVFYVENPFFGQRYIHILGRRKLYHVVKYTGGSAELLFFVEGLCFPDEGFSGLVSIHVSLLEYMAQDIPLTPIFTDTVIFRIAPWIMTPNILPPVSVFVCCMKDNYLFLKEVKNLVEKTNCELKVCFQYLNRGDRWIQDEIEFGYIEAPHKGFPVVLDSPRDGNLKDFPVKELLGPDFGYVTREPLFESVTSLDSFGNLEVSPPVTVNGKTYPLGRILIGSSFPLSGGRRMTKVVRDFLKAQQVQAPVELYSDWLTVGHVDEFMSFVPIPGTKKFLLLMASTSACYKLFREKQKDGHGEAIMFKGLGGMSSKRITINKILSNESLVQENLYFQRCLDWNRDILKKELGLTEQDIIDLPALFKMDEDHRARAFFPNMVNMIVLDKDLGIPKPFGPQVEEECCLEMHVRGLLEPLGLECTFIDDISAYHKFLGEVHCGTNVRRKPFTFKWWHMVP
readout.label: IC50 (mM)
Your answer should be a plain number; it is taken to be in mM.

*Q* Recorded IC50 for N=C(N)CCl with PAD2 (peptidylarginine deiminase 2) (Homo sapiens), please?
*A* 14.4
